# System: Thyroperoxidase (TPO), gene 54314
# Assay Summary: CCTE_Simmons_AUR_rTPO: CCTE's Amplex UltraRed Assay for Thyroperoxidase (TPO) Inhibition, Simmons Lab (AID 2283662)
Active and inactive are the calls of the source. How the source made its calls: active means hit-call score of the fitted dose curve at least 0.9, where 1 is the maximum; inconclusive means response in the unintended direction; inactive means score below 0.9.
Outcome codes: T = active, F = inactive

{"Compound": "COP(=S)(OC)SCn1nnc2ccccc2c1=O", "Qualitative Label": "T"}
{"Compound": "CCOc1nc(C(Cl)(Cl)Cl)ns1", "Qualitative Label": "F"}
{"Compound": "Cc1cnc(C2=NC(C)(C(C)C)C(=O)N2)c(C(=O)O)c1 (centres undefined)", "Qualitative Label": "F"}
{"Compound": "CCN(CC)c1nc(C)cc(OP(=S)(OC)OC)n1", "Qualitative Label": "T"}
{"Compound": "COc1ccc(-c2ccccc2)cc1NNC(=O)OC(C)C", "Qualitative Label": "T"}
{"Compound": "CCOP(=O)(OCC)Oc1nc(Cl)c(Cl)cc1Cl", "Qualitative Label": "T"}
{"Compound": "CC(C)=CC1C(C(=O)OCc2coc(Cc3ccccc3)c2)C1(C)C (centres undefined)", "Qualitative Label": "T"}
{"Compound": "Clc1nc(Cl)nc(Nc2ccccc2Cl)n1", "Qualitative Label": "T"}
{"Compound": "OC(c1ccc(Cl)cc1)(c1ccc(Cl)cc1)C(Cl)(Cl)Cl", "Qualitative Label": "T"}

###

# Read-out: TIMP1, TIMP1 (gene 7076)
# Assay Summary: LTEA_HepaRG_TIMP1: Life Technologies and Expression Analysis (LTEA) Assay for TIMP1 using HepaRG (AID 2283534);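 on Outcome: TaqMan qRT-PCR signal normalized to ACTB GAPDH and POLR2A housekeeping genes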
# Setup Conditions: mRNA level, 48 h; actives raise or lower the signal
Calls of active or inactive are those of the source. How the source made its calls: active means hit-call score of the fitted dose curve at least 0.9, where 1 is the maximum; inactive means score below 0.9.
Outcome codes: active, inactive

{"Compound": "CN/C(=N\\[N+](=O)[O-])NCc1cnc(Cl)s1", "Qualitative Label": "inactive"}
{"Compound": "Nc1c(Cl)c(Cl)nc(C(=O)O)c1Cl", "Qualitative Label": "inactive"}
{"Compound": "CN=C=S", "Qualitative Label": "inactive"}
{"Compound": "Nc1cnn(-c2ccccc2)c(=O)c1Cl", "Qualitative Label": "inactive"}
{"Compound": "CCSC(=O)N1CCCCCC1", "Qualitative Label": "inactive"}
{"Compound": "C=CCOC(=O)C(C)(C)OC(=O)c1cc(-n2c(=O)cc(C(F)(F)F)n(C)c2=O)ccc1Cl", "Qualitative Label": "inactive"}
{"Compound": "COc1ccc(-c2ccccc2)cc1NNC(=O)OC(C)C", "Qualitative Label": "inactive"}
{"Compound": "CCCCC(C#N)(Cn1cncn1)c1ccc(Cl)cc1 (stereo not drawn)", "Qualitative Label": "inactive"}
{"Compound": "CC(C)C1(C)N=C(c2ncccc2C(=O)O)NC1=O (stereo not drawn)", "Qualitative Label": "inactive"}
{"Compound": "CCOC(=O)C(C)OC(=O)c1cc(Oc2ccc(C(F)(F)F)cc2Cl)ccc1[N+](=O)[O-] (stereo not drawn)", "Qualitative Label": "inactive"}
{"Compound": "Clc1cccc(C(Cl)(Cl)Cl)n1", "Qualitative Label": "inactive"}
{"Compound": "CC(C)Nc1nc(Cl)nc(NC(C)C)n1", "Qualitative Label": "inactive"}
{"Compound": "Cn1c(-c2ccccc2)cc(-c2ccccc2)[n+]1C", "Qualitative Label": "active"}

###

# Target System: Oxysterols receptor LXR-alpha (Homo sapiens) (UniProt Q13133)
# Sequence (Q13133 whole entry, looked up): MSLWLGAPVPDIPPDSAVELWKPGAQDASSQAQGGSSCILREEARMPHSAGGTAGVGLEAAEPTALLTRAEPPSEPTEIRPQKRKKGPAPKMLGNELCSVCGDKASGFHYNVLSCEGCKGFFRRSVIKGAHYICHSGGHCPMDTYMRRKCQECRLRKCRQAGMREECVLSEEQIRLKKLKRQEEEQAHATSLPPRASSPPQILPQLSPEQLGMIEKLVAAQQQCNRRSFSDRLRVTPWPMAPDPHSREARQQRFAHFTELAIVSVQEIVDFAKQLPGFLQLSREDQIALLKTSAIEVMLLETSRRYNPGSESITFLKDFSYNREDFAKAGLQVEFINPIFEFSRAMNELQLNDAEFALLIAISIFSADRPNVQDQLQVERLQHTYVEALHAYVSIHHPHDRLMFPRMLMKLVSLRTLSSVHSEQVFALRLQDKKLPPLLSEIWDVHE
# Assay Summary: ATG_LXRa_TRANS: Attagene TRANS-FACTORIAL HepG2 Assay for human Liver X Receptor alpha (LXRa) (AID 2282980)
# Setup Conditions: HepG2 Attagene TRANS reporter, LXRa transactivation
Results filed as inconclusive are left out. Activity calls are given as the source filed them. The calls were made as follows: active = hit-call score of the fitted dose curve at least 0.9, where 1 is the maximum; inconclusive = response in the unintended direction; inactive = score below 0.9.
Outcome codes: Y = active, N = inactive

{"Compound": "Cc1cc(C)nc(Nc2ccccc2)n1", "Qualitative Label": "N"}
{"Compound": "O=P(O)(O)CCCl", "Qualitative Label": "N"}
{"Compound": "CNC(=O)Oc1cccc2ccccc12", "Qualitative Label": "N"}
{"Compound": "N#Cc1c(Cl)cccc1Cl", "Qualitative Label": "N"}
{"Compound": "CCOc1nc(F)cc2nc(S(=O)(=O)Nc3c(Cl)cccc3Cl)nn12", "Qualitative Label": "N"}
{"Compound": "COc1cc(Cl)c(OC)cc1Cl", "Qualitative Label": "N"}
{"Compound": "CS(=O)(=O)c1cc(C(F)(F)F)ccc1C(=O)c1cnoc1C1CC1", "Qualitative Label": "N"}
{"Compound": "CC(C)C1(C)N=C(c2ncccc2C(=O)O)NC1=O (stereo not drawn)", "Qualitative Label": "N"}
{"Compound": "CC(C)NC(=O)N1CC(=O)N(c2cc(Cl)cc(Cl)c2)C1=O", "Qualitative Label": "N"}
{"Compound": "CCSC(=O)N1CCCCCC1", "Qualitative Label": "N"}
{"Compound": "CCOc1nc(C(Cl)(Cl)Cl)ns1", "Qualitative Label": "N"}
{"Compound": "Clc1cccc(C(Cl)(Cl)Cl)n1", "Qualitative Label": "N"}
{"Compound": "COc1cc(OC)nc(NC(=O)NS(=O)(=O)c2ncccc2OCC(F)(F)F)n1", "Qualitative Label": "N"}
{"Compound": "CCOP(=S)(OCC)Oc1nc(Cl)n(C(C)C)n1", "Qualitative Label": "Y"}
{"Compound": "Cc1cnc(C2=NC(C)(C(C)C)C(=O)N2)c(C(=O)O)c1 (stereo not drawn)", "Qualitative Label": "N"}
{"Compound": "CN=C=S", "Qualitative Label": "N"}
{"Compound": "CC(C)N1C(=O)c2ccccc2NS1(=O)=O", "Qualitative Label": "Y"}
{"Compound": "CS(=O)(=O)c1ccc(C(=O)C2C(=O)CCCC2=O)c([N+](=O)[O-])c1", "Qualitative Label": "N"}
{"Compound": "N#Cc1c[nH]cc1-c1cccc2c1OC(F)(F)O2", "Qualitative Label": "N"}
{"Compound": "CCNP(=S)(OC)O/C(C)=C/C(=O)OC(C)C (stereo not drawn)", "Qualitative Label": "N"}
{"Compound": "CN/C(=N\\[N+](=O)[O-])NCc1cnc(Cl)s1", "Qualitative Label": "N"}
{"Compound": "CCN(CC)C(=O)C(C)Oc1cccc2ccccc12 (stereo not drawn)", "Qualitative Label": "N"}
{"Compound": "CCOP(=O)(OCC)Oc1nc(Cl)c(Cl)cc1Cl", "Qualitative Label": "N"}
{"Compound": "CC(C)Nc1nc(Cl)nc(NC(C)C)n1", "Qualitative Label": "N"}
{"Compound": "COP(=S)(OC)SCn1nnc2ccccc2c1=O", "Qualitative Label": "N"}
{"Compound": "CC1(C)CON(Cc2ccccc2Cl)C1=O", "Qualitative Label": "N"}
{"Compound": "CNC(=O)N(C)c1nnc(C(C)(C)C)s1", "Qualitative Label": "N"}
{"Compound": "O=c1n(Cl)c(=O)n(Cl)c(=O)n1Cl", "Qualitative Label": "N"}

###

# Read-out: xenobiotic metabolism (CYP1A1), CYP1A1 (gene 1543)
# Assay Summary: CLD_CYP1A1_48hr: CellzDirect (CLD) Gene Expression Assay for xenobiotic metabolism (CYP1A1) at 48 hours (AID 2283705)
Results filed as inconclusive are left out. Activity calls are given as the source filed them. Rule for the calls: active = hit-call score of the fitted dose curve at least 0.9, where 1 is the maximum; inconclusive = response in the unintended direction; inactive = score below 0.9.
Outcome codes: yes (active), no (inactive)

{"Compound": "CS(=O)(=O)c1cc(C(F)(F)F)ccc1C(=O)c1cnoc1C1CC1", "Qualitative Label": "no"}
{"Compound": "CNC(=O)N(C)c1nnc(C(C)(C)C)s1", "Qualitative Label": "no"}
{"Compound": "C=C(C)CN(CC)c1c([N+](=O)[O-])cc(C(F)(F)F)cc1[N+](=O)[O-]", "Qualitative Label": "no"}
{"Compound": "CCOP(=S)(OCC)Oc1nc(Cl)n(C(C)C)n1", "Qualitative Label": "yes"}
{"Compound": "CC(C)(C)C(=O)C(Oc1ccc(Cl)cc1)n1cncn1 (configuration not stated)", "Qualitative Label": "yes"}
{"Compound": "CC(C)NC(=O)N1CC(=O)N(c2cc(Cl)cc(Cl)c2)C1=O", "Qualitative Label": "yes"}
{"Compound": "CCC(C)n1c(=O)[nH]c(C)c(Br)c1=O (configuration not stated)", "Qualitative Label": "yes"}
{"Compound": "CCSC(=O)N1CCCCCC1", "Qualitative Label": "no"}
{"Compound": "COC(=O)NS(=O)(=O)c1ccc(N)cc1", "Qualitative Label": "no"}
{"Compound": "CCNC(=O)NC(=O)C(C#N)=NOC", "Qualitative Label": "no"}
{"Compound": "COCC(=O)N(c1c(C)cccc1C)C(C)C(=O)OC (configuration not stated)", "Qualitative Label": "no"}
{"Compound": "CC1(C)CCC(=Cc2ccc(Cl)cc2)C1(O)Cn1cncn1 (configuration not stated)", "Qualitative Label": "yes"}

###

# Read-out: CD40, CD40 (gene 958)
# Assay Summary: BSK_LPS_CD40: BioMAP Diversity Plus: LPS Assay for CD40 Biomarker Activity (AID 2283076)
# Setup Conditions: primary human HUVEC with PBMC; actives raise or lower the signal
Active and inactive are the calls of the source. Rule for the calls: active = hit-call score of the fitted dose curve at least 0.9, where 1 is the maximum; inactive = score below 0.9.
Outcome codes: 1.0 (active), 0.0 (inactive)

{"Molecule": "CCN(CC)C(=O)C(C)Oc1cccc2ccccc12 (stereo not drawn)", "Qualitative Label": 0.0}
{"Molecule": "CCOc1nc(C(Cl)(Cl)Cl)ns1", "Qualitative Label": 0.0}
{"Molecule": "CC(C)C1(C)N=C(c2ncccc2C(=O)O)NC1=O (stereo not drawn)", "Qualitative Label": 0.0}
{"Molecule": "CC1(C)CCC(=Cc2ccc(Cl)cc2)C1(O)Cn1cncn1 (stereo not drawn)", "Qualitative Label": 0.0}
{"Molecule": "CCCC(=NOCC)C1=C(O)CC(CC(C)SCC)CC1=O (stereo not drawn)", "Qualitative Label": 0.0}
{"Molecule": "CCCCC(C#N)(Cn1cncn1)c1ccc(Cl)cc1 (stereo not drawn)", "Qualitative Label": 0.0}
{"Molecule": "CCNP(=S)(OC)O/C(C)=C/C(=O)OC(C)C (stereo not drawn)", "Qualitative Label": 0.0}
{"Molecule": "COc1cc(OC)nc(NC(=O)NS(=O)(=O)c2ncccc2OCC(F)(F)F)n1", "Qualitative Label": 0.0}
{"Molecule": "CCC(C)n1c(=O)[nH]c(C)c(Br)c1=O (stereo not drawn)", "Qualitative Label": 0.0}
{"Molecule": "Cc1cnc(C2=NC(C)(C(C)C)C(=O)N2)c(C(=O)O)c1 (stereo not drawn)", "Qualitative Label": 0.0}
{"Molecule": "N#Cc1c[nH]cc1-c1cccc2c1OC(F)(F)O2", "Qualitative Label": 1.0}
{"Molecule": "CS(=O)(=O)c1cc(C(F)(F)F)ccc1C(=O)c1cnoc1C1CC1", "Qualitative Label": 0.0}
{"Molecule": "N#Cc1c(Cl)cccc1Cl", "Qualitative Label": 0.0}
{"Molecule": "COC(=O)N(C(=O)N1CO[C@@]2(C(=O)OC)Cc3cc(Cl)ccc3C2=N1)c1ccc(OC(F)(F)F)cc1", "Qualitative Label": 1.0}
{"Molecule": "COc1ccc(-c2ccccc2)cc1NNC(=O)OC(C)C", "Qualitative Label": 0.0}
{"Molecule": "O=P(O)(O)CCCl", "Qualitative Label": 0.0}
{"Molecule": "COC(=O)NC(=S)Nc1ccccc1NC(=S)NC(=O)OC", "Qualitative Label": 0.0}
{"Molecule": "COCC(C)N(C(=O)CCl)c1c(C)csc1C (stereo not drawn)", "Qualitative Label": 0.0}
